Species: Rattus norvegicus
Assay: Open TG-GATES - Regimen: Single
Assay type: toxicity, organism-based, Sprague-Dawley
Set-up: regimen Single, gender Male, age 6 weeks
Conditions: in vivo, po, 0 mg/kg, 3 h, tissue Plasma, route gavage, dose level Control
measure: GLC (mg/dL)
The reply should be a number in mg/dL, with the unit left off.

compound	GLC / mg/dL
CCc1oc2ccccc2c1C(=O)c1cc(Br)c(O)c(Br)c1 [BENZBROMARONE]	191
CN(C)CCC=C1c2ccccc2COc2ccccc21 [DOXEPIN]	169.4
OCCOCCN1CCN(C(c2ccccc2)c2ccc(Cl)cc2)CC1 (centres undefined) [HYDROXYZINE]	176.8

Query string: Endpoint output: GLC of CCC1(c2ccccc2)C(=O)NC(=O)NC1=O [PHENOBARBITAL] . Value?
Result string: 203.2

Query string: Fill in the blank: the reported GLC of O=NN(CCCl)C(=O)NC1CCCCC1 [LOMUSTINE] is ____.
Result string: 187

Query string: Using the record for CN(C)C(=N)N=C(N)N [METFORMIN] , report its GLC.
Result string: 179.8

Query string: Requested field: GLC. Item: CC[C@H]1[C@@H]2C[C@H]3[C@@H]4N(C)c5ccccc5[C@]45C[C@@H]([C@@H]2[C@H]5O)N3[C@@H]1O [AJMALINE]
Result string: 191.4

Query string: Suppose we examine the compound ClC(Cl)(Cl)Cl [CARBON TETRACHLORIDE] ; what GLC value has been reported?
Result string: 207

Query string: What value of GLC has been recorded for this entry: CC1=C(CC(=O)O)c2cc(F)ccc2/C1=C\c1ccc([S+](C)[O-])cc1 (centres undefined)
Result string: 168

====

Species on record: Rattus norvegicus
Assay: Open TG-GATES - Regimen: Single
Type: toxicity, organism-based, Sprague-Dawley
Design: regimen Single, gender Male, age 6 weeks
Details: in vivo, po, 0 mg/kg, 3 h, tissue Plasma, route gavage, dose level Control
Quick reference: IP of the listed items.
Provide only the numeric value, understood in mg/dL.

Use the examples below as a reference point.
molecule	quantity_unit	IP
CC1=C(CC(=O)O)c2cc(F)ccc2/C1=C\c1ccc([S+](C)[O-])cc1 (stereo not given)	mg/dL	8.7
CC(C)N(CCC(C(N)=O)(c1ccccc1)c1ccccn1)C(C)C (stereo not given) [DISOPYRAMIDE]	mg/dL	8.5
CCC1(c2ccccc2)C(=O)NC(=O)NC1=O [PHENOBARBITAL]	mg/dL	9.4
ClC(Cl)(Cl)Cl [CARBON TETRACHLORIDE]	mg/dL	9

Now consider a different molecule.
Query string: Sample CN(C)CCC=C1c2ccccc2COc2ccccc21 [DOXEPIN] — what was its IP?
Result string: 8.4

====

Species: Rattus norvegicus
Assay: Open TG-GATES - Regimen: Single
Type: toxicity, organism-based, Sprague-Dawley
Set-up: regimen Single, gender Male, age 6 weeks
Details: in vivo, po, 100 mg/kg, 24 h, route gavage, dose level Low
measure: TERMINAL_BW (g)
Number only, in g; omit the unit.

Known results for compounds:
compound	quantity_unit	recorded_result
CN(C)CCC=C1c2ccccc2COc2ccccc21 [DOXEPIN]	g	208.9
CN(C)C(=N)N=C(N)N	g	208.9
CCC1(c2ccccc2)C(=O)NC(=O)NC1=O	g	234.5

Next, consider the following compound.
Query string: Look at this compound and give its reported TERMINAL_BW. O=NN1CCOCC1
Result string: 215.1

====

Species: Rattus norvegicus
Experiment: Open TG-GATES - Regimen: Single
Type: toxicity, organism-based, Sprague-Dawley
Design: regimen Single, gender Male, age 6 weeks
Settings: in vivo, po, 0 mg/kg, 6 h, route gavage, dose level Control
measure: TERMINAL_BW (g)
Value expressed in g; do not type the unit.

Example cases with answers are listed next.
compound	quantity_unit	TERMINAL_BW
O=NN(CCCl)C(=O)NC1CCCCC1	g	200.9
OCCOCCN1CCN(C(c2ccccc2)c2ccc(Cl)cc2)CC1 (stereo not given) [HYDROXYZINE]	g	194.9
CC[C@H]1[C@@H]2C[C@H]3[C@@H]4N(C)c5ccccc5[C@]45C[C@@H]([C@@H]2[C@H]5O)N3[C@@H]1O	g	192.3
CCC1(c2ccccc2)C(=O)NC(=O)NC1=O	g	218.3
CN(C)CCC=C1c2ccccc2COc2ccccc21 [DOXEPIN]	g	196

Query string: Which TERMINAL_BW value belongs to CC(C)N(CCC(C(N)=O)(c1ccccc1)c1ccccn1)C(C)C (stereo not given) [DISOPYRAMIDE] ?
Result string: 210.2

Query string: Record request: TERMINAL_BW value, item CC1=C(CC(=O)O)c2cc(F)ccc2/C1=C\c1ccc([S+](C)[O-])cc1 (stereo not given)
Result string: 197.1

Query string: What value of TERMINAL_BW has been reported for the following compound? ClC(Cl)(Cl)Cl [CARBON TETRACHLORIDE]
Result string: 204.3

Query string: # input compound: CCc1oc2ccccc2c1C(=O)c1cc(Br)c(O)c(Br)c1 ; wanted: its TERMINAL_BW
Result string: 212.5

Query string: I am curious: what TERMINAL_BW value has been reported for CN(C)C(=N)N=C(N)N ?
Result string: 202.6

====

Organism: Rattus norvegicus
Assay: Open TG-GATES - Regimen: Daily Repeat
Format: toxicity, organism-based, Sprague-Dawley
Parameters: regimen Daily Repeat, gender Male, age 6 weeks
Conditions: in vivo, po, 0 mg/kg, […], tissue Plasma, route gavage, dose level Control, time 14 day
Entries and their measured K follow.
Numeric answer only, unit meq/L assumed.

Take a look at these entries with their results.
compound	K, meq/L
OCCOCCN1CCN(C(c2ccccc2)c2ccc(Cl)cc2)CC1 (stereo not given) [HYDROXYZINE]	4
CC[C@H]1[C@@H]2C[C@H]3[C@@H]4N(C)c5ccccc5[C@]45C[C@@H]([C@@H]2[C@H]5O)N3[C@@H]1O [AJMALINE]	4.9
O=NN(CCCl)C(=O)NC1CCCCC1 [LOMUSTINE]	4.7
CCCCc1oc2ccccc2c1C(=O)c1cc(I)c(OCCN(CC)CC)c(I)c1 [AMIODARONE]	3.5

Kindly review the next compound as well.
Query string: Suppose we examine the compound CCc1oc2ccccc2c1C(=O)c1cc(Br)c(O)c(Br)c1 [BENZBROMARONE] ; what K value has been reported?
Result string: 4.9

====

Species: Rattus norvegicus
Assay: Open TG-GATES - Regimen: Daily Repeat
Format: toxicity, organism-based, Sprague-Dawley
Set-up: regimen Daily Repeat, gender Male, age 6 weeks
Details: in vivo, po, 0 mg/kg, […], tissue Blood, route gavage, dose level Control, time 7 day
Below, each of the compounds is paired with its reported RBC value.
Respond numerically; units are x10_4/ul and should not be typed.

Solved cases (3 shown):
compound	RBC [x10_4/ul]
O=NN(CCCl)C(=O)NC1CCCCC1	617.4
CCCCc1oc2ccccc2c1C(=O)c1cc(I)c(OCCN(CC)CC)c(I)c1	642.8
CCc1oc2ccccc2c1C(=O)c1cc(Br)c(O)c(Br)c1	675

Query string: Query: RBC; subject: CC(C)N(CCC(C(N)=O)(c1ccccc1)c1ccccn1)C(C)C (stereo unspecified) [DISOPYRAMIDE]
Result string: 639.4

Query string: Fill in the blank: the reported RBC of ClC(Cl)(Cl)Cl [CARBON TETRACHLORIDE] is ____.
Result string: 647.4

Query string: I am curious: what RBC value has been reported for CC[C@H]1[C@@H]2C[C@H]3[C@@H]4N(C)c5ccccc5[C@]45C[C@@H]([C@@H]2[C@H]5O)N3[C@@H]1O ?
Result string: 629.6

Query string: Param item = CN(C)C(=N)N=C(N)N ; retrieve measured RBC.
Result string: 626.4

Query string: May I ask what RBC has been recorded for OCCOCCN1CCN(C(c2ccccc2)c2ccc(Cl)cc2)CC1 (stereo unspecified) [HYDROXYZINE] ?
Result string: 639.4

====

Species on record: Rattus norvegicus
Assay: Open TG-GATES - Regimen: Single
Assay type: toxicity, organism-based, Sprague-Dawley
Parameters: regimen Single, gender Male, age 6 weeks
Conditions: in vivo, po, 0 mg/kg, 6 h, tissue Plasma, route gavage, dose level Control
Define the label as criterion met when BUN is strictly less than 10 mg/dL and as criterion not met in all remaining cases.

Here's what some known entries look like.
compound	label_value
CC(C)N(CCC(C(N)=O)(c1ccccc1)c1ccccn1)C(C)C (centres undefined) [DISOPYRAMIDE]	criterion not met
CC1=C(CC(=O)O)c2cc(F)ccc2/C1=C\c1ccc([S+](C)[O-])cc1 (centres undefined)	criterion met
CCc1oc2ccccc2c1C(=O)c1cc(Br)c(O)c(Br)c1	criterion not met

Query string: Determine if ClC(Cl)(Cl)Cl [CARBON TETRACHLORIDE] shows BUN strictly lower than 10 mg/dL.
Result string: criterion met

Query string: # strict comparison: is reported BUN < 10 mg/dL? input = OCCOCCN1CCN(C(c2ccccc2)c2ccc(Cl)cc2)CC1 (centres undefined) [HYDROXYZINE]
Result string: criterion met

Query string: Hello, I'm reviewing records and need to know if BUN of CC[C@H]1[C@@H]2C[C@H]3[C@@H]4N(C)c5ccccc5[C@]45C[C@@H]([C@@H]2[C@H]5O)N3[C@@H]1O is below 10 mg/dL. Could you check?
Result string: criterion met

Query string: Field: below-cutoff. Rule: recorded BUN strictly less than 10 mg/dL. Subject: CN(C)C(=N)N=C(N)N
Result string: criterion met
